B1: LINE1-full (parent)
chain: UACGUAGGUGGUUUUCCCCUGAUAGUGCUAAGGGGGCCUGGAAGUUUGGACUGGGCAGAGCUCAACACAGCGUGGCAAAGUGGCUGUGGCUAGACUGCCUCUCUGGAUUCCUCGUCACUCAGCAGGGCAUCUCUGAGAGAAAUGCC

variants of: B1; assay: self-cleavage, relative activity (ratio to wild type); higher = more cleavage; in vitro, sequencing; the parent is a self-cleaving ribozyme
// false (0) strictly below 1 in self-cleavage; true (1) otherwise

G105A G114A | false (0)

// query Is reported self-cleavage greater than or equal to 1 here: U46A U143C
// result true (1)

// query Is reported self-cleavage greater than or equal to 1 here: G4C A107G
// result false (0)

// query Is reported self-cleavage greater than or equal to 1 here: U46C A138G
// result true (1)

// query Is reported self-cleavage greater than or equal to 1 here: G4A U20C
// result true (1)

Where do these numbers come from? They come from the RNAGym collection of RNA variant scans (doi:10.7554/elife.90254).
